- Run Description: yeast display, Sf9 membrane polyspecificity reagent, FACS + sequencing; frameworks hold sequencing errors
Assay Readout: polyreactivity (PSR sort gate)

Field: example entries. Status: answers known.
QVQLVESGGGLVQAGGSLRLSCAASGYTFPYYAMGWYIQAPGKERELVAAISRSGGTTYYADSVKGRFTISRDNAKNTVYLQLNSLKPEDTAVYYCAALYGSRSTYHMDDYWGQGTQVTVSS: high polyreactivity
QVQLVESGGGLVQAGGSLRLSCAASGRTFHGYAMGWYRQAPGKERELVARINWSDGRTYYADSVKGRFTISRDNAKNTVYLQMNSLKPVDTAVYYCAADKNVSYAPAWFYYWGQGTQVTVSS: low polyreactivity
QVQLQESGGGLVQAGGSLRLSCAASGYISLAQTIGWYRQAPGTEREFVASIALGSSTYYTDSVKGSFTISRDNAKTTVYLQMNSLKPEDTAVYYCAARVGASYAHDYWGQGTQVTVSS: low polyreactivity
QVQLVESGGGLVQAGGSLRLSCAPSGRIFWYNAMGWYRQAPGKERELVAGISSSGTRTYYADSVKGRFTISRDNAKNTVYLQMNSLKPEDTAVYYCAAGYDLSYYWYDYWGQGTQVTVSS: low polyreactivity

--- query ---
Input: Entry under review: QVQLVESGGGLVQAGGSLRLSCAASGRTFVVYAMGWYGQAPGKERELVAGITTRVGSTYYADSVKGRFTISRDNAKNTVYLQMNSLKPEDTAVYYCAARGSRYVGRVRYDYWGQGTQVTVSS . Reported polyreactivity (PSR sort gate)?
Output: high polyreactivity

---

- Run Description: yeast display, Sf9 membrane polyspecificity reagent, FACS + sequencing; frameworks hold sequencing errors
Assay Readout: polyreactivity (PSR sort gate)

QVQLGESGGGLVQAGGSLSLSCAASGFSISWYVMGWYRLAPGKERELVAAISWSGDRTYYADSVKGRFTISRDNAKNTVYLQMNSLKPEDTAVFYCAARRWRKYFSGYNYWGQGTQVTVSS: high polyreactivity
QVQLVESGGGLVQAGGSLRLSCAASGSILVNNAMGWYRQAPGKERELVAAISRSGTRTFYADSVKGRFTISRENAKNTVYLQMNSLKPEDTAVYYCAVDYYYRMDYWGQGTQVTVSS: high polyreactivity
QVQLIESGGGLVQAGGSLRLSCAASGIIFYDYAMGWYRPAPGKERELVATITSGGSTNYADSVKGRFTISRDNAKNTVYLQMNSLKPEDTAVYYCAAGRGLILGGVYGYDYWGQGTQVTVSS: low polyreactivity
QVQLVESGGGLVQAGGSLRLSCAASGRTFYIYTMGWYRQAPGKERELVATAITSGGITYYADSVKGRFTISRDNAKNTVYLQMNSLKPEDTAVYYCAADDYYGYYGFNYWGQGTQVTVSS: low polyreactivity

Input: Would you mind telling me what polyreactivity (PSR sort gate) value was observed for QVQLVESGGGLVQAGGSLRLSCAASGSIFAGNVMGWYRQAPGKESELVAAISRRGGRTYYADSVKGRFTISRDNAKNTVYLQMNSLKPEDTAVYYCAARRDPVLGKSDYWGQGTQVTVSS ?
Output: high polyreactivity

Input: Look up polyreactivity (PSR sort gate) for this sequence: QVQLVESGGGLVQAGGSLRLSCAASGRTFGYNVMGWYRQAPGKERELVADITSTSSTSYADSVKGRFTISRDNAKNTVYLQMNSLKPEDTAVYYCAAYYYFFRRYSWRLSGDYWGQGTQVTVSS
Output: low polyreactivity

Input: Quick one: polyreactivity (PSR sort gate) for QVQLVESGGGLVQAGGSLRLSCAASGRIFQYYVMGWYRQAPGKERELVAAITSGGGTKYADSVKGRFTISRDNAKNTVYLQMIRLKPEDTAVYYCAAAWFDQYSRYDYWGQCTQVTVSS ?
Output: low polyreactivity

Input: # input sequence: QVQLVESGGGLVQAGGSLRLSCAASGIIFRDYGMGWYRQAPGKESEIVATITYSGGGTYYADSVKGRFTISRDNANNTVYLQMNSLKPEDTAVYYCAAYPFYYDLAYDYWGQGTQVTVSS ; wanted: its polyreactivity (PSR sort gate)
Output: low polyreactivity

Input: Value lookup for polyreactivity (PSR sort gate); key = QVQLVESGGGLVQAGGSLRLSCAASGNTFSQYAMGWYRQAPGKERELVATISKSSGSTSYADSVKGRFTISRDNAKNTVYLQMNSLKPEDTAVYYCNADSSDVYHHLGVLFFSTWYDYWGQGTQVTVSS
Output: low polyreactivity

Input: Given the sequence QVQLVESGGGLVQAGGSLRLSCAASGRTFGGNAMGWYRQAPGKERELVAVIRSTGGSTYYADSVKGRFTISRDNAKNTVYLQMNSLKPEDTAVYYCAKGRGRNFGYWGQGTQVTVSS , what is its reported polyreactivity (PSR sort gate)?
Output: high polyreactivity

Input: What value of measured polyreactivity (PSR sort gate) is listed for QVQLVESGGGLVQAGGSLRLSCAASGSTFATYTMGWYRQAPGKERELVAAISVSGSRTYYADSVKGRFTISRDNAKNTVYLQMNSLKPEDTAVYYCNTLLRPRWSYDYWGQGTQVTVSS ?
Output: high polyreactivity

Input: Please look up its polyreactivity (PSR sort gate): QVQLVESGGGLVQAGGSIRLSCAASGFIFNHYAMGWYRQAPVKEREFVAAISWSGTRTYYADSVKGRFTISRDNAKNTVYLQMNSLKPEDTAVYYCAADVWGPYDYWGQGTQVTVSS
Output: low polyreactivity

Input: Form field: reported polyreactivity (PSR sort gate) of QVQLVESGGGLVQAGCSLRLRCAASGFTFQYNGMGWYRQAPGKERELVAAINWSGGTTYYADSVKGRFTISRDNAKNTVYLLMNCLKPEDTAVYYCAKGYWRRYSPVGGLGYDYWGQGTQVSVSS
Output: high polyreactivity

Input: # get_value(readout='polyreactivity (PSR sort gate)', item= QVQLVESGGGLVQAGGSLRLSCAASGRTSDVYAMGWYRQAPGKERALVAAISSGGSTSYADSVKGRFTISRDNAKNTVNLQMNSLKPEDTAVYYCAADSSGQSRFGYWGQGTQVTVSS )
Output: low polyreactivity

Input: Form field: reported polyreactivity (PSR sort gate) of QVQLVESGGGLVQAGGSLRLSCAASGRIIKFYAMGWYRQAPGKERELVAVIRSGTRTKYADSVKGRFTISRDNAKNTVYLQMNSLKPVDTAVYYCIRYFSEALLHGSSYNRYYYWGQGTQVTVSS
Output: low polyreactivity

Input: Name the reported polyreactivity (PSR sort gate) value associated with the sequence QVKLVESGGVLVQAGGSLRITCAGSGRIFSRYVMGWYRQAPGKETEFVAYITWSGSSTFYADSVKGRFTISRDNAKNTGYLQMNSHKPEDSAVYFCAALGLLSPSPWGTHISEYDSWGQGTQVTVSS
Output: low polyreactivity

Input: // returns reported polyreactivity (PSR sort gate) for input QVQLVESGGGLVQAGGSLRLSCAASGRTFGRYAMGWYRQAPGKERELVAAITRSGGSTNYADSVKGRFTISRDNAKNTVYLQMNSLKPEDTAVYYCARRGYSVRTPEGYYWGQGTQVTVSS
Output: high polyreactivity

Input: Quick one: polyreactivity (PSR sort gate) of QVQLVESGGGLVQAGGSLRLSCAASGRIFNYYAMGWYRQATGKERELVARIDASGDSTYYADSVKGRFTISRDNAKNTVYLQMNSLKPEDTAVYYCNKDYLYSYLWGWKVYSYDYWGQGTQVTVSS ?
Output: low polyreactivity
